biological target: human IP6K3 (Homo sapiens, UniProt Q96PC2); construct: GST (N, cleaved yes); made in house; host or cells: C43 E. coli, pGEX-6P-2; assay: IP6K3 inhibition dose-response assay (ADP-Glo Max); assay type: biochemical
Sequence (Q96PC2 whole entry): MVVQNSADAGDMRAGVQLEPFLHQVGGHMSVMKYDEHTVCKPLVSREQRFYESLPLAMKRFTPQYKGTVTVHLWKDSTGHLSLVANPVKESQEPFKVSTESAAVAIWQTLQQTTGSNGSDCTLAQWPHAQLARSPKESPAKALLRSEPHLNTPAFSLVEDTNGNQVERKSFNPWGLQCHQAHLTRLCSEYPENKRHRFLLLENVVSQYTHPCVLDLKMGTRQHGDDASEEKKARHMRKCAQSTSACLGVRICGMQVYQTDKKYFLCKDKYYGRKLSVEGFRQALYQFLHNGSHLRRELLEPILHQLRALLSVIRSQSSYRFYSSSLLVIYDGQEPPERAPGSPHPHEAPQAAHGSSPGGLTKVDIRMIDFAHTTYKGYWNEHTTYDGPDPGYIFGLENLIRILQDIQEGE
property: pIC50
Numbers only, as −log10 of the molar value.

Problem: Any idea what pIC50 was measured for NC(Cc1cc(O)c(O)cc1O)C(=O)O (racemic) [6-Hydroxy-DL-Dopa] ?
Result: 4.95

----------
target: Human IP6K1 (Homo sapiens, UniProt Q92551); construct: GST (N, cleaved yes); made in house; host or cells: C43 E. coli, pGEX-6P-2; experiment: IP6K1 high-throughput screen of the Sigma LOPAC (ADP-Glo Max, single point); type: biochemical; conditions: LOPAC single-point screen; Z-score from plate average and StDev;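 also: final compound concentration 10µM in 5% DMSO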
Sequence (Q92551 whole entry): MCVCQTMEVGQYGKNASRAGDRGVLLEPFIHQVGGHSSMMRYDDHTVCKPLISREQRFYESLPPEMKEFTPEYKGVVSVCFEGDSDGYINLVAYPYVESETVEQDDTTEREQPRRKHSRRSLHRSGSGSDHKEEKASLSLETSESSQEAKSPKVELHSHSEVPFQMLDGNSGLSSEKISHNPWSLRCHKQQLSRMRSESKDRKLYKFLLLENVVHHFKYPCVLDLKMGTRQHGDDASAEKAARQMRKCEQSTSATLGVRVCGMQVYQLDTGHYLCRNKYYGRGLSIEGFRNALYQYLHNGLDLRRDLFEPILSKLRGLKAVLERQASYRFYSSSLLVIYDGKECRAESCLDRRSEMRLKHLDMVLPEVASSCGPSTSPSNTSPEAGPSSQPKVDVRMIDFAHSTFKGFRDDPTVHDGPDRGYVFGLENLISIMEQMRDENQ
So I've got a bunch of molecules here, and I need their Z-score values.
One number for each entry.

Some solved entries appear below for comparison.
Cc1cn[nH]c1.Cl [4-Methylpyrazole hydrochloride] : 1.5345
CCc1cc(Cl)c(O)c(C(=O)NC[C@@H]2CCCN2CC)c1OC.Cl [S-(-)-Eticlopride hydrochloride] : 1.706
NCC(=O)NCCC(c1ccccc1)c1ccccc1 [N-(3,3-Diphenylpropyl)glycinamide] : 2.21

Problem: Param readout = Z-score; param system = Human IP6K1 (Homo sapiens, UniProt Q92551); param query = Br.C=CCN1CCc2cccc3c2[C@H]1Cc1ccc(O)c(O)c1-3 [R(-)-N-Allylnorapomorphine hydrobromide] ; response: value
Result: 1.469

----------
Would you mind telling me the reported Raw Signal of each entry?
target: Human IP6K1 (Homo sapiens, UniProt Q92551); construct: GST (N, cleaved yes); made in house; host or cells: C43 E. coli, pGEX-6P-2; assay: IP6K1 high-throughput screen of the Sigma LOPAC (ADP-Glo Max, single point); assay type: biochemical; conditions: LOPAC single-point screen, ADP-Glo Max luminescence raw signal per well;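 also: final compound concentration 10µM in 5% DMSO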
Structures can show the parent of a compound that is named as a salt.
Answers are plain numbers.

CCCn1c(=O)c2[nH]c(-c3ccc(S(=O)(=O)O)cc3)nc2n(CCC)c1=O [1,3-Dipropyl-8-p-sulfophenylxanthine] : 54862
Cc1cc(N)c2ccccc2[n+]1CCCCCCCCCCCCCC[n+]1c(C)cc(N)c2ccccc21 [Dequalinium analog, C-14 linker] : 52424
Cl.NCCC[C@](N)(C(=O)O)C(F)F (racemic) : 51967
c1ccc(C2CC2)c(OCC2=NCCN2)c1 [Cirazoline hydrochloride] : 48676
O=[N+]([O-])c1cc2nc(O)c(O)nc2cc1[N+](=O)[O-] [DNQX] : 50774
NC(=O)c1ncn([C@@H]2O[C@H](CO)[C@@H](O)[C@H]2O)c1O [Mizoribine] : 51474

// below: Raw Signal requested for another compound
Problem: Fill in the blank: the reported Raw Signal of O=C(Nc1cccc(C(=O)Nc2ccc(S(=O)(=O)O)c3cc(S(=O)(=O)O)cc(S(=O)(=O)O)c23)c1)Nc1cccc(C(=O)Nc2ccc(S(=O)(=O)O)c3cc(S(=O)(=O)O)cc(S(=O)(=O)O)c23)c1 [NF 023] is ____.
Result: 39481

----------
target: Human IP6K1 (Homo sapiens); construct: GST (N, cleaved yes); made in house; host or cells: C43 E. coli, pGEX-6P-2; experiment: IP6K1 high-throughput screen of the Sigma LOPAC (ADP-Glo Max, single point); assay type: biochemical; conditions: LOPAC single-point screen, ADP-Glo Max luminescence raw signal per well
property: Raw Signal
Numbers only.

CCCN(CC1CC1)c1nc(C)nc(Nc2c(Cl)cc(Cl)cc2Cl)c1Cl : 52610
COc1cccc(NC(=O)/C=C/c2ccc(Cl)cc2)c1 : 52546
Nc1nc2c(ncn2COCCO)c(=O)[nH]1 : 53270

Give Raw Signal for each of the items listed below.
1. CC(=O)Nc1nnc(S(N)(=O)=O)s1 [Acetazolamide]
2. C[C@@H]1O[C@@H]1P(=O)(O)O [Phosphomycin disodium]
3. C[N+]1(C)[C@@H]2CC[C@H]1C[C@@H](OC(=O)C(CO)c1ccccc1)C2 (some centres unmarked) [Atropine methyl bromide]
4. O=NN(CCCl)C(=O)NCCCl
5. NC(CP(=O)(O)O)C(=O)O (racemic) [(±)-2-Amino-3-phosphonopropionic acid]
6. CNCCc1ccc(O)c(O)c1.Cl [N-Methyldopamine hydrochloride]
7. Nc1nc2ccc(OC(F)(F)F)cc2s1
8. CCN(CC)c1ncnc2c1ncn2[C@@H]1O[C@H](COP(=O)([O-])OP(=O)([O-])C(Br)(Br)P(=O)([O-])O)[C@@H](O)[C@H]1O.[Na+].[Na+].[Na+] [ARL 67156 trisodium salt]

Result:
1: 54920; 2: 62776; 3: 52228; 4: 54247; 5: 53469; 6: 45936; 7: 52217; 8: 54051
